Entry source: ChEMBL document CHEMBL4368897

Test system: Mycolicibacterium smegmatis
Procedure summary: Antimicrobial activity against Mycobacterium smegmatis str. MC2 155 ATCC 700084 assessed as inhibition of planktonic bacteria growth incubated for 48 hrs by broth microdilution method
Format: organism-based
# MIC per entry

Structure notation	MIC
Nc1nc2cc(NC(=O)c3ccc(Cl)c(Cl)c3)ccc2n1CCCc1ccccc1	200 µM
CCCCCCn1c(N)nc2cc(NC(=O)c3ccc(CCCCC)cc3)ccc21	> 200 µM
Nc1nc2cc(NC(=O)c3cc(Cl)cc(Cl)c3)ccc2n1CCCc1ccccc1	200 µM
CCCCCc1ccc(C(=O)Nc2ccc3c(c2)nc(N)n3CCCc2ccc(Cl)cc2)cc1	120 µM
CCCCCc1ccc(C(=O)Nc2ccc3c(c2)nc(N)n3Cc2ccc(OC)cc2)cc1	> 200 µM
CCCCCc1ccc(C(=O)Nc2ccc3c(c2)nc(N)n3CCCc2cccc(Br)c2)cc1	100 µM
CCCCCc1ccc(C(=O)Nc2ccc3c(c2)nc(N)n3Cc2ccccc2)cc1	100 µM
CCCCCc1ccc(C(=O)Nc2ccc3c(c2)nc(N)n3CCCCc2ccccc2)cc1	100 µM
CCCCCc1ccc(C(=O)Nc2ccc3c(c2)nc(N)n3CCCc2ccc(Br)cc2)cc1	100 µM

Here is another compound to look at.
MIC reading for `CCCCCc1ccc(C(=O)Nc2ccc3c(c2)nc(N)n3CCCc2ccc(F)cc2)cc1` : 120 µM

###

# MIC per entry
Tested on: Mycolicibacterium smegmatis
Procedure summary: Antimicrobial activity against Mycobacterium smegmatis str. MC2 155 ATCC 700084 assessed as inhibition of planktonic bacteria growth incubated for 48 hrs by broth microdilution method
Assay type: organism-based
Quick reminder: number only, in µM, skip the unit.

Measured MIC (Mycolicibacterium smegmatis), entry `CCCCCc1ccc(C(=O)Nc2ccc3[nH]c(N)nc3c2)cc1` : 150

Measured MIC (Mycolicibacterium smegmatis), entry `CCCCCc1ccc(C(=O)Nc2ccc3c(c2)nc(N)n3CCc2ccccc2)cc1` : 100

Measured MIC (Mycolicibacterium smegmatis), entry `CCCCCCCCCn1c(N)nc2cc(NC(=O)c3ccc(CCCCC)cc3)ccc21` : 200

Measured MIC (Mycolicibacterium smegmatis), entry `CCCCCc1ccc(C(=O)Nc2ccc3c(c2)nc(N)n3CCCc2ccc(OC)cc2)cc1` : 100

Measured MIC (Mycolicibacterium smegmatis), entry `Nc1nc2cc(NC(=O)Nc3ccc(Cl)c(Cl)c3)ccc2n1CCCc1ccccc1` : 100

###

Test system: Mycolicibacterium smegmatis
Procedure summary: Antimicrobial activity against Mycobacterium smegmatis str. MC2 155 ATCC 700084 assessed as inhibition of planktonic bacteria growth incubated for 48 hrs by broth microdilution method
Type: organism-based
# MIC per entry
Quick reminder: number only, in µM, skip the unit.

Structure notation	MIC [µM]
CCCCCc1ccc(C(=O)Nc2ccc3c(c2)nc(N)n3CCc2ccc(OC)cc2)cc1	120

Measured MIC (Mycolicibacterium smegmatis), entry `CCCCCc1ccc(C(=O)Nc2ccc3c(c2)nc(N)n3CCc2cccc(OC)c2)cc1` : 200

Measured MIC (Mycolicibacterium smegmatis), entry `Nc1nc2cc(C(=O)Nc3ccc(Cl)c(Cl)c3)ccc2n1CCCc1ccccc1` : 200

Measured MIC (Mycolicibacterium smegmatis), entry `CCCCCc1ccc(C(=O)Nc2ccc3c(c2)nc(N)n3CCCc2ccccc2)cc1` : 60

Measured MIC (Mycolicibacterium smegmatis), entry `CCCCCc1ccc(C(=O)Nc2ccc3c(c2)nc(N)n3CCCc2ccccc2Br)cc1` : 120

Measured MIC (Mycolicibacterium smegmatis), entry `CCCCCc1ccc(C(=O)Nc2ccc3c(c2)nc(N)n3CCc2ccccc2OC)cc1` : 120
